Entry source: PubChem BioAssay

- test_protocol: differential killing of epithelial or mesenchymal cells, primary screen, imaging, PC-3E GFP, TEM4-18 mCherry, co-culture (AID 1345086);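 also: cells exposed to compound for 72 h before imaging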
- run_conditions: imaging cell counts, measured here: mesenchymal TEM4-18 mCherry cell survival, at 1 µM

compound | normalised cell number
O=C1CN=C(c2ccccc2Cl)c2cc([N+](=O)[O-])ccc2N1 | 1.07
CC(N)Cc1ccc(O)cc1 (stereo unspecified) | 1.19
O=c1[nH]oc2c1CCNC2 | 1.1
CC1Sc2c(C(=O)O)c(=O)c3cc(F)c(N4CCNCC4)cc3n21 (stereo unspecified) | 1.16
CC(Cc1ccc(O)cc1)NCC(O)c1cc(O)cc(O)c1 (stereo unspecified) | 1.03
CC(CC(C(N)=O)(c1ccccc1)c1ccccc1)N(C)C (stereo unspecified) | 0.99
